# measured.on: Vasoactive intestinal polypeptide receptor 1 (Rattus norvegicus, UniProt P30083)
# Sequence (P30083 whole entry): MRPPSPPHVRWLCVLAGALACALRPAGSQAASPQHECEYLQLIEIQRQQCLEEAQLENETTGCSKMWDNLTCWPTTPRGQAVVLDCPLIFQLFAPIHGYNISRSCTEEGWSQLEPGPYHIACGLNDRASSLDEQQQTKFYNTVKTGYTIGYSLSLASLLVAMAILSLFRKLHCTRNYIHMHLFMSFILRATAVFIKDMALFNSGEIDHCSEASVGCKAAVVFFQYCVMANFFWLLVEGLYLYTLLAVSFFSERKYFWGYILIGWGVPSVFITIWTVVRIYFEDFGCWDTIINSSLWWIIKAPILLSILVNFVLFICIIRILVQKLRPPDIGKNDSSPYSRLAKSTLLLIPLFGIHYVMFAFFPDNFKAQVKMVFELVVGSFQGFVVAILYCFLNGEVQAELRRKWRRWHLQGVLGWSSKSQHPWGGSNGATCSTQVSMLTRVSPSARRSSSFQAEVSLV
# procedure.summary: Antagonist activity at vasoactive intestinal peptide receptor 1 in rat RKE cells assessed as inhibition of VIP-induced intracellular cAMP accumulation incubated for 15 mins prior to VIP-stimulation measured after 30 mins by HTRF assay
pIC50: −log10 of the molar value.
Listed next: entries and their corresponding pIC50.
measured.attribute: pIC50

- molecule: "CC(C)c1cc(C(C)(C)C)cc(-c2ccc(-c3ccccc3)cc2)c1CO"
  measured.on: "Vasoactive intestinal polypeptide receptor 1 (Rattus norvegicus, UniProt P30083)"
  measured.attribute: "pIC50"
  value.observed: 6.17
- molecule: "CC(C)c1cc(C(C)(C)C)cc(-c2ccccc2)c1CO"
  measured.on: "Vasoactive intestinal polypeptide receptor 1 (Rattus norvegicus, UniProt P30083)"
  measured.attribute: "pIC50"
  value.observed: 6.41
- molecule: "N#Cc1c(NC(=O)C2CCc3ccccc3C2)sc2c1CCCC2 (stereo unspecified)"
  measured.on: "Vasoactive intestinal polypeptide receptor 1 (Rattus norvegicus, UniProt P30083)"
  measured.attribute: "pIC50"
  value.observed: 4.92
- molecule: "CC(C)c1cc(C(C)(C)C)cc(-c2ccccc2-c2ccccc2)c1CO"
  measured.on: "Vasoactive intestinal polypeptide receptor 1 (Rattus norvegicus, UniProt P30083)"
  measured.attribute: "pIC50"
  value.observed: 5.49
- molecule: "Cc1cccc(CCC(=O)Nc2sc3c(c2C#N)CCCC3)c1"
  measured.on: "Vasoactive intestinal polypeptide receptor 1 (Rattus norvegicus, UniProt P30083)"
  measured.attribute: "pIC50"
  value.observed: 6.12
- molecule: "CC(C)c1cc(C(C)(C)C)cc(-c2cccc(Cl)c2)c1CO"
  measured.on: "Vasoactive intestinal polypeptide receptor 1 (Rattus norvegicus, UniProt P30083)"
  measured.attribute: "pIC50"
  value.observed: 7.00
- molecule: "CC(C)c1cc(C(C)(C)C)cc(-c2cccc3ccccc23)c1CO"
  measured.on: "Vasoactive intestinal polypeptide receptor 1 (Rattus norvegicus, UniProt P30083)"
  measured.attribute: "pIC50"
  value.observed: 6.74
- molecule: "N#Cc1c(NC(=O)Cc2cc3ccccc3[nH]2)sc2c1CCCC2"
  measured.on: "Vasoactive intestinal polypeptide receptor 1 (Rattus norvegicus, UniProt P30083)"
  measured.attribute: "pIC50"
  value.observed: 4.30
- molecule: "N#Cc1c(NC(=O)C2CC2)sc2c1CCCC2"
  measured.on: "Vasoactive intestinal polypeptide receptor 1 (Rattus norvegicus, UniProt P30083)"
  measured.attribute: "pIC50"
  value.observed: 5.57
- molecule: "N#Cc1c(NC(=O)C2Cc3ccccc3C2)sc2c1CCCC2"
  measured.on: "Vasoactive intestinal polypeptide receptor 1 (Rattus norvegicus, UniProt P30083)"
  measured.attribute: "pIC50"
  value.observed: 4.77
- molecule: "N#Cc1c(NC(=O)C2CCC2)sc2c1CCCC2"
  measured.on: "Vasoactive intestinal polypeptide receptor 1 (Rattus norvegicus, UniProt P30083)"
  measured.attribute: "pIC50"
  value.observed: 5.74
